// reported pIC50 per item
target or system: recombinant His-tagged cytoplasmic domains of TRKA receptor (NTRK1, PV3144, aa 441-796) (Homo sapiens)
Construct: aa 441-796; His
Sequence (P04629 441-796): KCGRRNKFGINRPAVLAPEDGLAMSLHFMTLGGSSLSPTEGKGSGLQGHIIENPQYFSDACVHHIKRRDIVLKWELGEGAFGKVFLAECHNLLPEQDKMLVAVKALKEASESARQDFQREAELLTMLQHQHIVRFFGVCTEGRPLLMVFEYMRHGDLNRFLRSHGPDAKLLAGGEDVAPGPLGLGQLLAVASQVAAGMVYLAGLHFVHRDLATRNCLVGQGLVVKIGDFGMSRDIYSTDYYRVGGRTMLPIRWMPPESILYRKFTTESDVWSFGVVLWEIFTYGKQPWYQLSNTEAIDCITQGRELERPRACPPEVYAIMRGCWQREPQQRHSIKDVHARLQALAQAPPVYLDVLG
procedure text: Isolated TRK enzyme assay (HTRF KinEASE-TK, PV3144 TrkA enzyme assay)
condition set: 4 nM enzyme, 40 uM ATP, 35 min, arithmetic mean where more than one reading
pIC50: −log10 of the molar value.
observation type: pIC50

query_smiles=Cc1nc(-c2ccc(O[C@H]3CCN(C(=O)Cc4ccc(OC(F)(F)F)cc4)C[C@H]3F)c(C(N)=O)c2)c[nH]1 reported_measurement=8.80
query_smiles=Cn1cnc(-c2ccc(O[C@H]3[C@@H]4CC[C@H]3CN(C(=O)Cc3ccc(OC(F)(F)F)cc3)C4)c(C(N)=O)c2)c1 reported_measurement=8.66
query_smiles=NC(=O)c1cc(-c2cn(CCO)nn2)ccc1OC1CCN(C(=O)Cc2ccc(OC(F)(F)F)cc2)CC1 reported_measurement=7.72
query_smiles=Cc1n[nH]c(C)c1-c1ccc(OC2CCN(C(=O)Cc3ccc(OC(F)(F)F)cc3)CC2)c(C(N)=O)c1 reported_measurement=8.00
query_smiles=Cc1nnc(-c2ccc(OC3CCN(C(=O)Cc4ccc(OC(F)(F)F)cc4)CC3)c(C(N)=O)c2)s1 reported_measurement=7.90
query_smiles=COCc1ccc(-c2cnc(OC3CCN(C(=O)Cc4ccc(OC(F)(F)F)cc4)CC3)c(C(N)=O)c2)cc1 reported_measurement=8.13
query_smiles=Cn1ccc(-c2ccc(OC3CCN(C(=O)Cc4ccc(OC(F)(F)F)cc4)CC3)c(C(N)=O)c2)n1 reported_measurement=7.90
